- ASSAY OVERVIEW: Toxicity to uninfected BALB/c mice
- Format: in vivo
- ASSAY SETUP: mouse, in vivo; 600 mg/kg/day, once daily for 15 days; read-out: Survivors (%)
READOUT LABEL: survival (%)
Numbers only; they are read as %.

IN: Tell me the measured survival of `Nc1ncc2ncn(CO[C@@H](CO)CCP(=O)(O)O)c2n1` , please.
OUT: 100

----------
- ASSAY OVERVIEW: Toxicity to uninfected BALB/c mice
- Format: in vivo
- ASSAY SETUP: mouse, in vivo; 100 mg/kg/day, once daily for 15 days; read-out: Survivors (%)
READOUT LABEL: survival (%)
The answer is to be given in %; state only the numeric part.

IN: Dear colleague, I am looking for the recorded survival of the following compound: `Nc1ncc2ncn(CO[C@@H](CO)CCP(=O)(O)O)c2n1`
OUT: 100
